tested on: NCI-H23; experiment: NCI tumour cell line growth inhibition, 48 h
Calls of active or inactive are those of the source. No stated cut-off is given here; in the data, active = GI50 up to about 1.1 µM and inactive = higher.
Your reply should match one of these outcome classes. label 1 for active, label 0 for inactive

Examples from the recorded data:
CCCCCCN(N)C(=O)CC#N
label 0
CCN(CC)C(=S)SS(=O)(=O)c1ccccc1[N+](=O)[O-]
label 0
Cc1c(Cl)c2ccccc2n1S(=O)(=O)c1ccccc1
label 0
CCN(CCCl)c1cc(CN(C)C)cc(NC(=O)c2ccc(C(=O)Nc3cc(CN(C)C)cc(N(CC)CCCl)c3)cc2)c1
label 1
Cc1ccc2c(n1)C(=O)c1cc(C)c(C)cc1C2=O
label 0

Query string: Answer briefly: the call reported for NC(=O)OCC(COc1ccc(Cl)cc1)OC(=O)c1ccccc1Cl (configuration not stated) in this assay.
Result string: label 0

Query string: Answer briefly: the call reported for O=C(O)c1c[nH]c2c(Sc3ccccc3)nccc2c1=O in this assay.
Result string: label 0

###

tested on: A498; experiment: NCI tumour cell line growth inhibition, 48 h
Calls of active or inactive are those of the source. Rule as the data show it: active = GI50 up to about 1.1 µM and inactive = higher.
Your reply should match one of these outcome classes. label 1 for active, label 0 for inactive

Examples from the recorded data:
N#Cc1c(O)nc2[nH]nc(/N=N\c3c(O)ccc4ccccc34)c2c1-c1ccc(Cl)cc1
label 1
CC(C)=CCNc1ncnc2[nH]cnc12
label 0

Query string: Answer briefly: the call reported for Clc1cccc2c1OCC1C(c3ccccc3)=NN(c3ccccc3)C21 (centres undefined) in this assay.
Result string: label 0

Query string: Answer briefly: the call reported for CN(/N=C/c1ccccn1)C1=NCCCCN1 in this assay.
Result string: label 0

###

The following molecules are listed with their measured GI50 values.
tested on: SN12C; assay: NCI tumour cell line growth inhibition, 48 h
Calls of active or inactive are those of the source. Cut-off read from the data, not from the text of the source: active = GI50 up to about 1.1 µM and inactive = higher.

Examples with answers:
Cc1nc(-n2nc(-c3ccccc3)cc2-c2ccccc2)sc1C(=O)/C=C/c1ccc([N+](=O)[O-])cc1
29.1 µM (inactive)
CCN(CC)C(=S)SS(=O)(=O)c1ccccc1[N+](=O)[O-]
22 µM (inactive)
COC(=O)NC1C(C)OC(OC2C/C=C(/C)C3C=CC4C(OC5CC(OC6CC(O)C(OC7CC(O)C(OC)C(C)O7)C(C)O6)C(O)C(C)O5)C(C)CC(C)C4C3(C)C(=O)C3=C(O)C4(CC(C)C(CO)=CC4/C=C\2C)OC3=O)CC1(C)[N+](=O)[O-] (stereo not drawn)
12.9 µM (inactive)

Query string: Given the molecule NC(=O)CCC(Nc1c2ccccc2[n+]([O-])c2ccccc12)C(=O)O (stereo not drawn) , what is its reported GI50?
Result string: 71.8 µM (inactive)

Query string: Given the molecule Cc1cc2c(cc1C)[n+]([O-])c(NCCCN(C)C)c(C#N)[n+]2[O-] , what is its reported GI50?
Result string: 82.4 µM (inactive)

Query string: Given the molecule Cc1cc(C#N)c(Nc2ccccc2[N+](=O)[O-])s1 , what is its reported GI50?
Result string: 19.2 µM (inactive)

Query string: Given the molecule Cc1ccc(NC(=O)C(=O)CC(=O)C2CCOC2=O)c(C)c1 (stereo not drawn) , what is its reported GI50?
Result string: > 100 µM (inactive)

Query string: Given the molecule CC(C)(C)C1CCN(C(=O)c2ccccc2)CC1 , what is its reported GI50?
Result string: > 100 µM (inactive)

Query string: Given the molecule NS(=O)(=O)c1ccc(C(=O)O)cc1 [CARZENIDE] , what is its reported GI50?
Result string: > 100 µM (inactive)

Query string: Given the molecule O=C1c2cc(Cl)ccc2N=C(NC2CCCC2)C2CSCN12 (stereo not drawn) , what is its reported GI50?
Result string: > 100 µM (inactive)

Query string: Given the molecule CC1=C(C(=O)Nc2cc(=O)n(C)c(=O)n2C)C(c2cccc([N+](=O)[O-])c2)C(C(=O)Nc2cc(=O)n(C)c(=O)n2C)=C(C)N1 , what is its reported GI50?
Result string: > 100 µM (inactive)

Query string: Given the molecule CC(C)(C)[Si](C)(C)OCC1OC(n2cc(I)c(N)nc2=O)C(O[Si](C)(C)C(C)(C)C)C1O[Si](C)(C)C(C)(C)C (stereo not drawn) , what is its reported GI50?
Result string: 8.28 µM (inactive)

Query string: Given the molecule Cc1nc2ccc(Br)cc2c(=O)n1-c1ccc(N)cc1 , what is its reported GI50?
Result string: > 100 µM (inactive)

Query string: Given the molecule CCC(C)(C)c1ccc(Oc2cccc(C(=O)O)c2)cc1 , what is its reported GI50?
Result string: 56.4 µM (inactive)

Query string: Given the molecule CC(=O)OC1CCC2(C)C(=CCC3C2CCC2(C)C(C(C)C(=O)O)CCC32)C1 (stereo not drawn) , what is its reported GI50?
Result string: > 100 µM (inactive)

Query string: Given the molecule C[N+]1(C)[C@@H]2CC[C@H]1C[C@@H](OC(=O)C(CO)c1ccccc1)C2 (stereo partly drawn) [ATROPINE METHYLBROMIDE] , what is its reported GI50?
Result string: > 100 µM (inactive)

Query string: Given the molecule C=CC1(C)CCC2C(=CCC3C2(C)CC(O)C(O)C3(C)COC2OC(CO)C(O)C(O)C2O)C1 (stereo not drawn) , what is its reported GI50?
Result string: > 100 µM (inactive)

Query string: Given the molecule COP(=O)(OC)C(NC=O)P(=O)(OC)OC , what is its reported GI50?
Result string: > 100 µM (inactive)

###

tested on: MOLT-4; test: NCI tumour cell line growth inhibition, 48 h
The source made the active and inactive calls. Cut-off read from the data, not from the text of the source: active = GI50 up to about 1.1 µM and inactive = higher.
Your reply should match one of these outcome classes. true (active), false (inactive)

Examples from the recorded data:
O=S(=O)(O)c1cc(S(=O)(=O)O)c2cc(/N=N/c3ccc(/N=N/c4ccc(/C=C/c5ccc(/N=[N+](/[O-])c6ccc(/C=C/c7ccc(/N=N/c8ccc(/N=N/c9ccc%10cc(S(=O)(=O)O)cc(S(=O)(=O)O)c%10c9)cc8)cc7S(=O)(=O)O)c(S(=O)(=O)O)c6)cc5S(=O)(=O)O)c(S(=O)(=O)O)c4)cc3)ccc2c1
false
CCCCCCCCNC(=O)C1=C(C)NC(C)=C(C(=O)NCCCCCCCC)C1
false
Cc1cc(Cl)ccc1NC(=O)/C(=N\NC(C)(C)C)C(C#N)c1nc(-c2ccc([N+](=O)[O-])cc2)cs1 (centres undefined)
false

Query string: Answer briefly: the call reported for CC1CCC2(OC1)OC1CC3C4CC=C5CC(OC6OC(CO)C(OC7OC(C)C(OC8OC(C)C(O)C(O)C8O)C(O)C7O)C(O)C6OC6OC(C)C(O)C(O)C6O)CCC5(C)C4CCC3(C)C1C2C (centres undefined) in this assay.
Result string: true

###

test system: NCI-H23; assay: NCI tumour cell line growth inhibition, 48 h
Active and inactive are the calls of the source. No stated cut-off is given here; in the data, active = GI50 up to about 1.1 µM and inactive = higher.
The following compounds are listed with their measured GI50 values.

Examples with answers:
Cc1nn(C(=O)c2ccccc2O)c2c1C(c1ccc(O)cc1)SC(=N)N2 (centres undefined)
1.83 µM (inactive)
O=c1cccc2n1CC1CNC[C@H]2C1
> 100 µM (inactive)
SC1=NC2=C(CSC/C2=C\c2ccc(Cl)cc2)C(c2ccc(Cl)cc2)N1 (centres undefined)
46.9 µM (inactive)

Below: the item to evaluate.
Query string: Given the compound O=C1CC(NCCCNC2CC(=O)c3c(Br)sc(Br)c32)c2c(Br)sc(Br)c21 (centres undefined) , what is its reported GI50?
Result string: 1.83 µM (inactive)

###

system: HOP-62; assay: NCI tumour cell line growth inhibition, 48 h
Activity calls are given as the source filed them. Rule as the data show it: active = GI50 up to about 1.1 µM and inactive = higher.
The following compounds are listed with their measured GI50 values.

Examples with answers:
O/N=C1/C(=C/c2ccc(Cl)c(Cl)c2)CCCC1C(NO)c1ccc(Cl)c(Cl)c1 (configuration not stated)
20.1 µM (inactive)
COc1cc(NS(C)(=O)=O)ccc1Nc1cc(C)nc2ccc3[nH]ccc3c12
> 100 µM (inactive)
COc1ccc(-c2cc(O)c3ccc(F)cc3n2)cc1
> 100 µM (inactive)
O=C(CSCC(=O)N/N=C/c1cccc(C(F)(F)F)c1)N/N=C/c1cccc(C(F)(F)F)c1
> 100 µM (inactive)
S=P1(Sc2ccccc2)Oc2ccc3ccccc3c2-c2c(ccc3ccccc23)O1
> 100 µM (inactive)

Query string: Given the compound COc1cc(CNc2nc3ccccc3nc2-c2cccs2)cc(OC)c1OC , what is its reported GI50?
Result string: 21.4 µM (inactive)

Query string: Given the compound CCCC(C)C[C@@H](C)CC(C)/C=C(\C)c1oc(=O)c(C)c(O)c1C.CC[C@@H](C)C[C@@H](C)C[C@@H](C)/C=C(\C)c1oc(=O)c(C)c(O)c1C (some centres not stated) , what is its reported GI50?
Result string: 18.7 µM (inactive)

Query string: Given the compound Cn1c(-c2ccccc2)c2cc3nc4ccccc4nc3cc2c1-c1ccccc1 , what is its reported GI50?
Result string: 10.2 µM (inactive)

Query string: Given the compound Cc1ccc2c(n1)C(=O)c1cc(C)c(C)cc1C2=O , what is its reported GI50?
Result string: > 100 µM (inactive)

Hey, just so you know, these numbers are from ChEMBL document CHEMBL1201862.
